The entries below are paired with their reported HLM: Percentage of parent compound metabolised.
experiment: Human liver microsomal stability; format: in vitro ADME; conditions: human liver microsomes, after a 30 min incubation
reported-property: HLM: Percentage of parent compound metabolised (%)

Cc1nc(CN2CCN(c3c(Cl)cnc4[nH]c(-c5cn(C)nc5C)nc34)CC2)no1 [Example 3] ... 20
Cc1nn(C)cc1-c1nc2c(N3CCN(Cc4ccc(Cl)cc4)CC3)c(Cl)cnc2[nH]1 [Example 1] ... 10
Cc1cc(CN2CCN(c3c(Br)cnc4nc(-c5ccc(N6CCN(C)CC6)cc5)[nH]c34)CC2)no1 [CCT137690, reference compound] ... 86
Cc1nn(C)cc1-c1nc2c(N3CCN(Cc4ncon4)CC3)c(Cl)cnc2[nH]1 [Example 2] ... 22

###

molecular target: CYP1A2 (Homo sapiens (Human))
Sequence (P05177 whole entry): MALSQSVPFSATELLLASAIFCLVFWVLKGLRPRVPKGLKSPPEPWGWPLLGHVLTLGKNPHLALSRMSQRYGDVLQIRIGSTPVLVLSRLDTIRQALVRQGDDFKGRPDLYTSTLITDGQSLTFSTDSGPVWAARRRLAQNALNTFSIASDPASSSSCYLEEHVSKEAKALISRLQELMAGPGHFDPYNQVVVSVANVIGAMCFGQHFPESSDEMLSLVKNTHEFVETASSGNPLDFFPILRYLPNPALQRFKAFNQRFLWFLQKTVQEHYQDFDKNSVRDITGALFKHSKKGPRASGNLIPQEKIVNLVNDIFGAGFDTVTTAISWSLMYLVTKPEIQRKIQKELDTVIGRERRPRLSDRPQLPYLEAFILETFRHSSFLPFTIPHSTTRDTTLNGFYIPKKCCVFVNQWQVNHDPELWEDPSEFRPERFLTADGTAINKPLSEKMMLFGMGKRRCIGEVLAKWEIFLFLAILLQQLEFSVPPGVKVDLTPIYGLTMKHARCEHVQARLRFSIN
pIC50: −log10 of the molar value.
reported-property: pIC50

Cn1cc(-c2nc3c(N4CCN(Cc5cccnc5)CC4)c(Br)cnc3[nH]2)cn1 ... 4.30 to 5.00

###

test: In vivo full PK in mouse; settings: female, Balb/C, plasma, iv, 5 mg/kg
reported-property: clearance (mL/min)

Cc1nn(C)cc1-c1nc2c(N3CCN(Cc4ccc(Cl)cc4)CC3)c(Cl)cnc2[nH]1 ... 0.967

###

biological target: hERG (Homo sapiens (Human)); experiment: hERG inhibition (cell-based electrophysiology, hERG tail current)
Sequence (Q12809 whole entry): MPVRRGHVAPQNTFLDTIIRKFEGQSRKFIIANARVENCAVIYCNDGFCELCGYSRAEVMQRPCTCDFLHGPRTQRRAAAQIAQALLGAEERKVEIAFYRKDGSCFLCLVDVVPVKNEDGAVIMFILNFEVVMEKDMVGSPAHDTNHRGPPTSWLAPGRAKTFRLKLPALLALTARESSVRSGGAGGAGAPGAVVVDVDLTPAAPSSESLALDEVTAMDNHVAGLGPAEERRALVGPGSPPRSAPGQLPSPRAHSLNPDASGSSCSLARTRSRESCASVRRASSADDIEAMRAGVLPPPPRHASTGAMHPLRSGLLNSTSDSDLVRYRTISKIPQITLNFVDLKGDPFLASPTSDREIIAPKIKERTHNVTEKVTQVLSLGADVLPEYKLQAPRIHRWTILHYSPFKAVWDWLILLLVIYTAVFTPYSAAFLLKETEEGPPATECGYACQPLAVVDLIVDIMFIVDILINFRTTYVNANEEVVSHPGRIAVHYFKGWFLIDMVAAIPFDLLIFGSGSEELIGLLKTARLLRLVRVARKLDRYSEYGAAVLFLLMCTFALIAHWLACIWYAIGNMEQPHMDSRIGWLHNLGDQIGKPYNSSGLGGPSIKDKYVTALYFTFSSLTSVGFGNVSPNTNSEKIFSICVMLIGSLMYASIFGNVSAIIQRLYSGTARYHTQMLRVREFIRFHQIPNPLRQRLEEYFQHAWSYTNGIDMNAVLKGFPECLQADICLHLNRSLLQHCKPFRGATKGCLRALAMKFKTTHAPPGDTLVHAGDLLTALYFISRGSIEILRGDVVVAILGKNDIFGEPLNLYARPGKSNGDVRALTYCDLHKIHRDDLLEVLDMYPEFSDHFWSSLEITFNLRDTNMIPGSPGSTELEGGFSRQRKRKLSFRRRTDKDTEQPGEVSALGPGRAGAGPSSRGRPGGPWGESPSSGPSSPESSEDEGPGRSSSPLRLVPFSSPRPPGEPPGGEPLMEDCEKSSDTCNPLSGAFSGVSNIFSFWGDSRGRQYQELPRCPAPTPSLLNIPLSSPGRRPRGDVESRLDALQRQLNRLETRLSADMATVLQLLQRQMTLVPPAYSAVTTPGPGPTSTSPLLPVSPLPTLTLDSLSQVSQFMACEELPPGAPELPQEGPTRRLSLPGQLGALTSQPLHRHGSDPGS
pIC50: −log10 of the molar value.
reported-property: pIC50

Cc1nc(CN2CCN(c3c(Cl)cnc4[nH]c(-c5cn(C)nc5C)nc34)CC2)no1 ... 5.02

###

target: CYP2C19 (Homo sapiens (Human))
Sequence (P33261 whole entry): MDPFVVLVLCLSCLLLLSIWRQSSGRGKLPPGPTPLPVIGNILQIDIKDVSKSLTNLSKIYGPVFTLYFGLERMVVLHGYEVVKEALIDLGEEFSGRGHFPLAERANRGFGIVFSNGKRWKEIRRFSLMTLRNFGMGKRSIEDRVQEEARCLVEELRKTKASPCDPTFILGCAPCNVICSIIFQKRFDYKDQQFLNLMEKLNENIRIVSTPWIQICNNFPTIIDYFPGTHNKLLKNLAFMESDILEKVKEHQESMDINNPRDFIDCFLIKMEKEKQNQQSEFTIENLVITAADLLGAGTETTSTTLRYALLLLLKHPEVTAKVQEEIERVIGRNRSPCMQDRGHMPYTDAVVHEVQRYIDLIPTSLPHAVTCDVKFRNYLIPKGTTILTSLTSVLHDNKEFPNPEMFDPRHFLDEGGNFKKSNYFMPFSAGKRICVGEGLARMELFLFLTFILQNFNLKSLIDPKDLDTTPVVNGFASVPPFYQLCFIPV
pIC50: −log10 of the molar value.
The compounds listed here are annotated with their pIC50.
reported-property: pIC50

Cc1nc(CN2CCN(c3c(Cl)cnc4[nH]c(-c5cn(C)nc5C)nc34)CC2)no1 ... < 4.30
Cn1cc(-c2nc3c(N4CCN(Cc5cccnc5)CC4)c(Br)cnc3[nH]2)cn1 ... 4.30 to 5.00
Cc1nn(C)c(C)c1-c1nc2c(N3CCN(Cc4cccnc4)CC3)c(Br)cnc2[nH]1 ... 4.30 to 5.00

###

pIC50: −log10 of the molar value.
Lab note: pIC50 readings collected with UniProt:P11712 for the following compounds.
Sequence (P11712 whole entry): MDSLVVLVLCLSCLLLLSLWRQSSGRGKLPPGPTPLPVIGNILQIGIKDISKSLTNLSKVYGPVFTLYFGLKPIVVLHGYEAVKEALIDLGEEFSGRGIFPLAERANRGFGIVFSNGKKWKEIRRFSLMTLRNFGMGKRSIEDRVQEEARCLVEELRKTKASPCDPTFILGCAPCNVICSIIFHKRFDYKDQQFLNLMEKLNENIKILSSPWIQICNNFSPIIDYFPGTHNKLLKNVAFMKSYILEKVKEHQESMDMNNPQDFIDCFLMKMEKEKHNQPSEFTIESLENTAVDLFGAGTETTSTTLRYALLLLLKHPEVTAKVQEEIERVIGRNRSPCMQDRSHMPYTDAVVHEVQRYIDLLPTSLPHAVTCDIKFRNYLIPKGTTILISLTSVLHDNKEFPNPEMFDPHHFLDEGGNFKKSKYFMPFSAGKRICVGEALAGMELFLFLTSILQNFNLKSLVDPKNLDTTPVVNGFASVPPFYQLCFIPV
reported-property: pIC50

Cc1nn(C)c(C)c1-c1nc2c(N3CCN(Cc4cccnc4)CC3)c(Br)cnc2[nH]1 ... 4.30 to 5.00
Cn1cc(-c2nc3c(N4CCN(Cc5cccnc5)CC4)c(Br)cnc3[nH]2)cn1 ... 4.30 to 5.00

###

target: CYP3A4 (Homo sapiens (Human), UniProt P08684); assay: Inhibition of CYP isozymes in human liver microsomes, CYP3A4; conditions: read-out: Estimated IC50 CYP3A4, probe Midazolam
Sequence (P08684 whole entry): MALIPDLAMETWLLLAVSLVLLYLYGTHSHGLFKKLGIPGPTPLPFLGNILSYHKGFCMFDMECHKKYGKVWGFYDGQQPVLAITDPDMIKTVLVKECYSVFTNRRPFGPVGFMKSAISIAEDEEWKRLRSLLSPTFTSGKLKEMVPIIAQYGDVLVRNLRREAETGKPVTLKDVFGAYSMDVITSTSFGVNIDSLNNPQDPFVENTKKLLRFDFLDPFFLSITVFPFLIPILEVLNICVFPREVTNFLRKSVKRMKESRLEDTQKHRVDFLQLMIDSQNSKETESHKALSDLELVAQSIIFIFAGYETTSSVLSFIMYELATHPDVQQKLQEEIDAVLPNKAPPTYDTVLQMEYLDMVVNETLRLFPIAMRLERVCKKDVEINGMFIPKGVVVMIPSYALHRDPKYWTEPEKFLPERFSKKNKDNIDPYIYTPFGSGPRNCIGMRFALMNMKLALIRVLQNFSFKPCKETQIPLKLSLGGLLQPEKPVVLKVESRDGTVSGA
reported-property: IC50

Cc1nn(C)cc1-c1nc2c(N3CCN(Cc4ccc(Cl)cc4)CC3)c(Cl)cnc2[nH]1 ... > 50 µM
Cn1cc(-c2nc3c(N4CCN(Cc5cccnc5)CC4)c(Br)cnc3[nH]2)cn1 ... < 1 µM
Cc1nn(C)cc1-c1nc2c(N3CCN(Cc4ncon4)CC3)c(Cl)cnc2[nH]1 ... > 50 µM
Cc1nc(CN2CCN(c3c(Cl)cnc4[nH]c(-c5cn(C)nc5C)nc34)CC2)no1 ... > 50 µM
Cc1nn(C)c(C)c1-c1nc2c(N3CCN(Cc4cccnc4)CC3)c(Br)cnc2[nH]1 ... < 1 µM

###

Each entry below carries its recorded pIC50.
molecular target: hERG (Homo sapiens (Human))
pIC50: −log10 of the molar value.
reported-property: pIC50

Cn1cc(-c2nc3c(N4CCN(Cc5cccnc5)CC4)c(Br)cnc3[nH]2)cn1 ... 5.26
Cc1nn(C)c(C)c1-c1nc2c(N3CCN(Cc4cccnc4)CC3)c(Br)cnc2[nH]1 ... 4.97

###

Endpoint: IC50. System: Aurora-A (Homo sapiens (Human)). Items follow.
Sequence (O14965 whole entry): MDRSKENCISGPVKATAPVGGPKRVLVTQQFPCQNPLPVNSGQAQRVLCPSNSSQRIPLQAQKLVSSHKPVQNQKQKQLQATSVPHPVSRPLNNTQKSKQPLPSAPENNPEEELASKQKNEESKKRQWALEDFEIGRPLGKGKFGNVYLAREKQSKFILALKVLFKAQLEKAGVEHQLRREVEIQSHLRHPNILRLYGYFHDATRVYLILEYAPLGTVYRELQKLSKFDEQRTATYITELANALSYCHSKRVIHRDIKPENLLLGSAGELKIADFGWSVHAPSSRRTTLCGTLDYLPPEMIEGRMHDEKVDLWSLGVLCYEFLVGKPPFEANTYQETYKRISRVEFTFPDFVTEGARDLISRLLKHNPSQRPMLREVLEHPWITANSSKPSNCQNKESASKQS
reported-property: IC50 (nM)

Cc1nn(C)c(C)c1-c1nc2c(N3CCN(Cc4cccnc4)CC3)c(Br)cnc2[nH]1 [Comparator 2] ... 300
Cn1cc(-c2nc3c(N4CCN(Cc5cccnc5)CC4)c(Br)cnc3[nH]2)cn1 [Comparator 1] ... 32
